pIC50 overview
Target: human TLR9 (Homo sapiens, UniProt Q9NR96)
Construct: host or cells: HEK-Blue cells
Sequence (Q9NR96 26-1032): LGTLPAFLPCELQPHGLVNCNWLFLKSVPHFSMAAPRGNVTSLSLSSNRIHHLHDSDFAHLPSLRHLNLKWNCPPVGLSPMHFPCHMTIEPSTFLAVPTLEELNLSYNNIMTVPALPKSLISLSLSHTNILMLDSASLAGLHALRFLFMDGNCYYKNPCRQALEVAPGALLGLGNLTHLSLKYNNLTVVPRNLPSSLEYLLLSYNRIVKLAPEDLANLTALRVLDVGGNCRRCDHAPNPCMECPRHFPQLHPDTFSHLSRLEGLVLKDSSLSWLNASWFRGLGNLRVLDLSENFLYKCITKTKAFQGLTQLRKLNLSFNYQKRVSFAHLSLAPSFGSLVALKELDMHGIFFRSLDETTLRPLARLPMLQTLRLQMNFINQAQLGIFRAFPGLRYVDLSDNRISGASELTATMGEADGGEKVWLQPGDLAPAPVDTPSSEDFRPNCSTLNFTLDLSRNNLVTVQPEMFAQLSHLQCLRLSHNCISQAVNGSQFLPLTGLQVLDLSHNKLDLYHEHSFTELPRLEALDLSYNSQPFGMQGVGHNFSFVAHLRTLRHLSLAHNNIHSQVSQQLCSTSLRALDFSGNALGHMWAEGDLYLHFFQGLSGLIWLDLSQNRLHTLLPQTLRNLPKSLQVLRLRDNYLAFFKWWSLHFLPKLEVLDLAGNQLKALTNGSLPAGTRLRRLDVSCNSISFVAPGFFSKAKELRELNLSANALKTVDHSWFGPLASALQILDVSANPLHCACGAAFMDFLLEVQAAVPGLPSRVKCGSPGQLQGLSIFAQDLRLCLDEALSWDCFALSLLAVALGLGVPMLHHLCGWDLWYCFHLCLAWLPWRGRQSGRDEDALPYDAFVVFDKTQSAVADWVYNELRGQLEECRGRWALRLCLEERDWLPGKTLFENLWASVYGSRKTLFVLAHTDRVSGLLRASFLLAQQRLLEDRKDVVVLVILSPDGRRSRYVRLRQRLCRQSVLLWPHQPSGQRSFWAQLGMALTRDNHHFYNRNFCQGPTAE
Assay: TLR9 inhibition reporter assay (HEK-Blue SEAP reporter, ODN2006 stimulation)
Type: cell-based
Details: HEK-Blue cells overexpressing human TLR9, SEAP reporter, ODN2006 5 nM, 22 hour incubation
pIC50: −log10 of the molar value.

Worked examples follow.
molecular_string=Cc1c(-c2[nH]c3ccc(C4CCN(CCC(F)(F)F)CC4)cc3c2C(C)C)cn(C)c(=O)c1Cl measurement_label=pIC50 result="≤ 4.30"
molecular_string=Cc1cc(-c2[nH]c3ccc(C4CCN(Cc5ncn(C)n5)CC4)cc3c2C(C)C)cn(C)c1=O measurement_label=pIC50 result="≤ 4.30"
molecular_string=Cc1cc(-c2[nH]c3ccc(C4CCN(CCN5C(=O)CCC5=O)CC4)cc3c2C(C)C)cn(C)c1=O measurement_label=pIC50 result="≤ 4.30"
molecular_string=CCCN1CCC(c2ccc3[nH]c(-c4cc(N5CCCCC5)c(=O)n(C)c4)c(C(C)C)c3c2)CC1 measurement_label=pIC50 result=5.18
molecular_string=Cc1cc(-c2[nH]c3ccc(C4CCN(C(=O)C(C)(C)CO)CC4)cc3c2C(C)C)cn(C)c1=O measurement_label=pIC50 result="≤ 4.30"

Turning now to a further record.
Looking up Cc1cc(-c2[nH]c3ccc(C4CCN(C5COC5)CC4)cc3c2C(C)C)c(C)n(C)c1=O , I see its pIC50 listed as ≤ 4.30

These measurements were taken from patent US11447466B2.
